# Test system: PANC-1
# protocol_text: Cytotoxicity against human PANC1 cells after 48 hrs by SRB assay
# Format: functional
# condition_summary: PANC-1, 48 h, read-out: LC50 (the source's name)
measured_metric: CC50 (nM)
Answers are plain numbers, in nM.

C/C=C1\NC(=O)[C@H](Cc2ccccc2)NC(=O)[C@@H](C(C)C)NC(=O)[C@@H]([C@H](C)CC)NC(=O)[C@H](NC(=O)[C@H](NC(=O)[C@H](CCCN)NC(=O)[C@H]2CCCN2C(=O)[C@H](NC(=O)[C@@H](NC(=O)[C@@H](NC(=O)[C@@H](NC(=O)CCCC(C)C)C(C)C)[C@@H](C)O)C(C)C)C(C)C)[C@H](C)CC)[C@H](C)OC(=O)[C@H](C(C)C)NC1=O
1590

Answer for every listed entry: what is its CC50? The entries follow.
1. C/C=C1\NC(=O)[C@H](Cc2ccccc2)NC(=O)[C@@H](C(C)C)NC(=O)[C@@H]([C@H](C)CC)NC(=O)[C@H](NC(=O)[C@H](NC(=O)[C@H](CCCNC(=O)/C=C/CCC)NC(=O)[C@H]2CCCN2C(=O)[C@H](NC(=O)[C@@H](NC(=O)[C@@H](NC(=O)[C@H](NC(=O)CCCC(C)C)C(C)C)[C@@H](C)O)C(C)C)C(C)C)[C@H](C)CC)[C@H](C)OC(=O)[C@H](C(C)C)NC1=O
2. C/C=C1\NC(=O)[C@H](Cc2cccc(Cl)c2)NC(=O)[C@@H](C(C)C)NC(=O)[C@@H]([C@H](C)CC)NC(=O)[C@H](NC(=O)[C@H](NC(=O)[C@H](CCCN)NC(=O)[C@H]2CCCN2C(=O)[C@H](NC(=O)[C@@H](NC(=O)[C@@H](NC(=O)[C@H](NC(=O)CCCC(C)C)C(C)C)[C@@H](C)O)C(C)C)C(C)C)[C@H](C)CC)[C@H](C)OC(=O)[C@H](C(C)C)NC1=O

OUT:
1: 1670; 2: 1700
